system: MV4;11 WT cells; experiment: CellTiter-Glo cell viability, WT MV4;11 cells; assay type: cell-based; conditions: 24 h, CTG

{"compound": "CC(C)C[C@@H](N)[C@H](O)C(=O)N1CCC[C@H]1c1nnn[nH]1 [CQ99]", "cytotoxicity to MV4;11 cells (in words)": "inactive in cells"}
{"compound": "CC(C)C[C@@H](N)[C@H](O)C(=O)N1CCC[C@H]1C(=O)OC1CCCC1 [CQ94]", "cytotoxicity to MV4;11 cells (in words)": "slightly more toxic"}
{"compound": "CC(C)C[C@@H](N)[C@H](O)C(=O)N1CCC[C@H]1C(=O)OC(C)(C)C [CQ34]", "cytotoxicity to MV4;11 cells (in words)": "slightly more toxic"}
{"compound": "CONC(=O)[C@@H]1CCCN1C(=O)[C@@H](O)[C@H](N)CC(C)C [CQ55]", "cytotoxicity to MV4;11 cells (in words)": "inactive in cells"}
{"compound": "CC(C)C[C@@H](N)[C@H](O)C(=O)N1CCC[C@H]1CNS(C)(=O)=O [CQ53]", "cytotoxicity to MV4;11 cells (in words)": "inactive in cells"}
